Below, each entry is listed with its recorded pIC50.
- Assay target: F1F0-ATPase (Bos taurus)
pIC50: −log10 of the molar value.

[[record]]
compound = "COc1cc(F)c2c(NC(=NC(=O)c3ccc(F)c(F)c3)NC(C)(C)C)n[nH]c2c1"
property_measured = "pIC50"
experimental_result = "> 5.30"

[[record]]
compound = "CC(C)(C)NC(=NC(=O)c1cccc(Cl)c1)Nc1n[nH]c2cc(F)ccc12"
property_measured = "pIC50"
experimental_result = "> 5.30"

[[record]]
compound = "O=C(/N=C(/Nc1cc(F)cc(Cl)c1)Nc1n[nH]c2cccc(F)c12)c1ccc(F)c(F)c1"
property_measured = "pIC50"
experimental_result = "< 4.80"

[[record]]
compound = "CC(C)(O)CN/C(=N/C(=O)c1ccc(F)c(F)c1)Nc1n[nH]c2cc(F)ccc12"
property_measured = "pIC50"
experimental_result = "> 5.30"

[[record]]
compound = "CC(C)CN/C(=N/C(=O)c1ccc(F)c(F)c1)Nc1n[nH]c2ccc(C(F)(F)F)cc12"
property_measured = "pIC50"
experimental_result = "> 5.30"


Request - read-out pIC50 | tested on F1F0-ATPase (Bos taurus) | compound CC(C)(C)N/C(=N/C(=O)c1ccc(F)c(F)c1)Nc1n[nH]c2ccc(C(F)(F)F)cc12 > 5.30

# query: pIC50 | item COCC(C)NC(=NC(=O)c1ccc(F)c(F)c1)Nc1n[nH]c2cncc(Cl)c12 (stereo not drawn) | system: F1F0-ATPase (Bos taurus) < 4.80

---

Quick record of IC50 values for UniProtKB P13621.
Counter-ions that a name gives are not always drawn.

[[record]]
molecule = "CC(C)CN/C(=N/C(=O)c1ccc2nonc2c1)Nc1n[nH]c2cc(F)ccc12"
assay_target = "UniProtKB P13621"
experimental_result = "< 5 µM"

[[record]]
molecule = "COCC(C)NC(=NC(=O)c1ccc(F)c(F)c1)Nc1n[nH]c2c(Cl)cccc12 (centres unmarked)"
assay_target = "UniProtKB P13621"
experimental_result = "5 to 16 µM"

[[record]]
molecule = "O=C(/N=C(/NCCOCCO)Nc1n[nH]c2cc(C(F)(F)F)ccc12)c1ccc(Cl)c(F)c1"
assay_target = "UniProtKB P13621"
experimental_result = "> 16 µM"

[[record]]
molecule = "COC[C@H](C)NC(=NC(=O)c1ccc(F)c(F)c1)Nc1nn(C(=O)[C@@H](N)C(C)C)c2cc(C(F)(F)F)ccc12 [Compound 6, hydrochloride salt]"
assay_target = "UniProtKB P13621"
experimental_result = "5 to 16 µM"


Lab note: next molecule to report on.
Query IC50 on UniProtKB P13621 for CC(C)CN/C(=N/C(=O)c1ccc(F)c(F)c1)Nc1n[nH]c2cncc(Cl)c12 < 5 µM

Entry source: patent US9920012B2
